Source: ChEMBL document CHEMBL5715953

Measured On: UniProt:Q99873
Sequence (Q99873 whole entry): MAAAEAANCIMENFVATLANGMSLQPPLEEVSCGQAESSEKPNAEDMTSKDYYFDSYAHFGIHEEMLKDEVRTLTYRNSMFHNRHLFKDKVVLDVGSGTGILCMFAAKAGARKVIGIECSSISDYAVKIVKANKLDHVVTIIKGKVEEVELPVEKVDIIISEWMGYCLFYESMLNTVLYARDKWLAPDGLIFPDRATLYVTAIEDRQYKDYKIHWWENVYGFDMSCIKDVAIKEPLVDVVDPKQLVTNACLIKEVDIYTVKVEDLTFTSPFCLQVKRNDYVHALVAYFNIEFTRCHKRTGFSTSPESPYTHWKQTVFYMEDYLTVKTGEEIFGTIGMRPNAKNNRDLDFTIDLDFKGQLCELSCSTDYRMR
pKi: −log10 of the molar value.
Property Name: pKi

Case CN(CCN)Cc1n[nH]nc1-c1cccc(C(F)(F)F)c1 , UniProt:Q99873, pKi recorded as < 5.00

---

Measured On: Histone-arginine methyltransferase CARM1 (Homo sapiens, UniProt Q86X55)
Sequence (Q86X55 whole entry): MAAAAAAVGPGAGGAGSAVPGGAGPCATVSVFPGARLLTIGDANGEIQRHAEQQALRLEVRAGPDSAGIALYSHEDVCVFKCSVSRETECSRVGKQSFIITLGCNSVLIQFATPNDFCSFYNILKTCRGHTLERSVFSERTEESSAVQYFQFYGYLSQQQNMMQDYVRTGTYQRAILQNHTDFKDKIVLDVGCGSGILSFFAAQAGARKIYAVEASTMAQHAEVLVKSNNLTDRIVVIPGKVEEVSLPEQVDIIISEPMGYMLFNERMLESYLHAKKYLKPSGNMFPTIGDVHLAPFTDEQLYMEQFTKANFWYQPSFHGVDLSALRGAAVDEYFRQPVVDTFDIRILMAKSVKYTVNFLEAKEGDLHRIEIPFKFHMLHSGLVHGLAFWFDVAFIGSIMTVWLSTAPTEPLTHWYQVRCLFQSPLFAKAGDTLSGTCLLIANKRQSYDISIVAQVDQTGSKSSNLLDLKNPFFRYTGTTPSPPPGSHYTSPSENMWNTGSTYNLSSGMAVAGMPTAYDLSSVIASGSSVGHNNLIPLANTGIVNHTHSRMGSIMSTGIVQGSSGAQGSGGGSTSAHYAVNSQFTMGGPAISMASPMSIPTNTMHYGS
Test Description: Inhibition of human PRMT4 using (3H) methylated biotin labelled peptide as substrate in presence of 3H-SAM by scintillation proximity assay
Property Name: pIC50
# pIC50 is unitless: minus log10 of the molar concentration; print number only

Entry CC(C)Oc1ccc(-c2c[nH]cc2CN(C)CCN)cc1 , pIC50 reported as 7.08

---

Measured On: Protein arginine N-methyltransferase 8 (Homo sapiens, UniProt Q9NR22)
Sequence (Q9NR22 whole entry): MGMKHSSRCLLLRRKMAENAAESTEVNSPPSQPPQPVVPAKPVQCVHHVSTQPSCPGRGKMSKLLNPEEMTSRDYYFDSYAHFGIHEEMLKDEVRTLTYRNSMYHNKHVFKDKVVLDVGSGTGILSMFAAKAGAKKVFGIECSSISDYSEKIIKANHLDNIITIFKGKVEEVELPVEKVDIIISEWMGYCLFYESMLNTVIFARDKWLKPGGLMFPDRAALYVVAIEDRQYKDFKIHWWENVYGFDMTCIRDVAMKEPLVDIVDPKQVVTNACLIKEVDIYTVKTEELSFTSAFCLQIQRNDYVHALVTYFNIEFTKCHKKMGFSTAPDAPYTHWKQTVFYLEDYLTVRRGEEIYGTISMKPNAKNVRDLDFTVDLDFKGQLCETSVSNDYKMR
Test Description: Inhibition of human PRMT8 using (3H) methylated biotin labelled peptide as substrate in presence of 3H-SAM by scintillation proximity assay
Parameter: IC50. Scope: all listed entries.
Note: unit nM is implicit; provide only the numeric part.

CC(C)Oc1ccc(-c2c[nH]cc2CN(C)CCN)cc1	5
CN(CCN)Cc1c[nH]cc1-c1cccc(C(F)(F)F)c1	42

Entry CN(CCN)Cc1n[nH]nc1-c1cccc(C(F)(F)F)c1 , IC50 reported as 3000
